Test: AUC (0 to last) in 12 hrs fasted C57BL/6 mouse at 1 mg/kg, po measured upto 24 hrs by LC-MS/MS analysis
Type: ADME, organism-based
Design: time < 24 hrs, dose 1 mg/kg, route po
Settings: in vivo
MEASURE: AUC(0-t) at 24 h
Don't forget the unit after the number, please.

Quick one: AUC(0-t) at 24 h for O=C(Nc1ccc2[nH]ncc2c1)N1CCN(c2cccc(Cl)c2Cl)CC1 ?
1030 ng·h/mL
